Test: microbe, parasite or virus in culture
Settings: Mycobacterium tuberculosis, 96 h, read-out: pIC50 (converted)
Consider the cut-off 30 µM. If the recorded IC50 is strictly smaller, the label is 1.0; if not, the label is 0.0.

• COC(=O)CCCC(=O)N1CCCc2ccccc2C1 = 0.0
• CCCS(=O)(=O)N(C)Cc1cccc(OCC)n1 = 0.0

[Q] Dear reviewer, please state whether "C=C(C)CSc1nnc(CCNC(=O)OC(C)(C)C)o1" has IC50 strictly beneath 30 µM.
[A] 1.0

[Q] Dear reviewer, please state whether "CS(=O)(=O)N1CCc2[nH]cnc2C12CCN(C(=O)c1ccccc1)CC2" has IC50 strictly beneath 30 µM.
[A] 0.0

[Q] Dear reviewer, please state whether O=C1NCC(C(=O)NCCCc2ccc(Cl)cc2)N1 (configuration not stated) has IC50 strictly beneath 30 µM.
[A] 0.0

[Q] Dear reviewer, please state whether "Cl.Fc1ccc(F)c(CN2CCC(c3cc4ncccc4cn3)CC2)c1" has IC50 strictly beneath 30 µM.
[A] 0.0

###

Assay: microbe, parasite or virus in culture
Conditions: Mycobacterium tuberculosis, 72 h, read-out: pIC50 (converted)
READOUT_NAME: IC50

Use the examples below as a reference point.
* O=C1NC2(CCCN(C(=O)CCn3cccn3)C2)Oc2ccccc21 (stereo not drawn) | 39.4 µM
* CN(C)CCNC(=O)C1Cc2nc(-c3ccccc3)sc2N1CC1CC1 (stereo not drawn) | > 50.1 µM
* Cc1noc(NC(=O)c2cccc(Br)c2)n1 | 46.3 µM
* O=C(CNc1ccccc1F)N1CCCCC1 | 71.6 µM
* COc1cc(N2CCNCC2)ccc1F | 281 µM

Kindly note the recorded IC50 for Cc1ccc(CN2CCC3(CC(=O)N(c4cccc(F)c4)C3)C2)o1 (stereo not drawn) , which is 20.3 µM

Kindly note the recorded IC50 for "Cc1cc2nc(CN)[nH]c2cc1C" , which is 148 µM

Kindly note the recorded IC50 for CC(Nc1ccc2c(c1)CCC2)c1nc(C2CC2)no1 (stereo not drawn) , which is 0.704 µM

Kindly note the recorded IC50 for "CSCc1ccc(C(=O)N2CC(CC(N)=O)C2)cc1" , which is > 501 µM

Kindly note the recorded IC50 for "CC(C)c1cc(=O)[nH]c(-n2nc(C3CC3)cc2N)n1" , which is 12.5 µM

Kindly note the recorded IC50 for "COc1cccc(C(=O)NCc2ccoc2C)n1" , which is 364 µM

Kindly note the recorded IC50 for "CCOCCC(=O)N(C)Cc1cc(C(C)C)no1" , which is 169 µM

Kindly note the recorded IC50 for "COc1cccc(CNCCn2cccn2)c1OC" , which is 196 µM

###

Consider the following molecules and their measured IC50 readings.
Test system: Mycobacterium tuberculosis
Assay: Cornell M. t heat shock assay
Assay type: functional, organism-based
Details: Mycobacterium tuberculosis
Form entry: value (µM) — number only.

- NC(=O)NC(=O)CCN1CCN(c2nccs2)CC1: 35.1
- CN1CCN(C(=O)c2cnsn2)c2ccc(F)cc21: 67.4
- Cc1ccc(Oc2c(F)cccc2OC[C@@H](N)CC(C)C)cc1: 25.1

Kindly review the next molecule as well.
Kindly note the recorded IC50 for "CN[C@@H]1CCC[C@@H](Oc2ccccc2Oc2ccc(C)cc2)[C@@H]1O" , which is 89.2

###

Experiment: microbe, parasite or virus in culture
Conditions: Mycobacterium tuberculosis, 96 h, read-out: pIC50 (converted)
READOUT_NAME: IC50

Use the examples below as a reference point.
* CN(CCS(=O)(=O)c1cc(Cl)ccc1Cl)CC(N)=O | > 50.1 µM
* CCN(C1CC1)S(=O)(=O)c1ccc2c(c1)OCCO2 | > 501 µM
* O=C(NCc1[nH]ncc1Br)Nc1nc2c(s1)COCC2 | > 501 µM
* CCc1nc(CN(C)C2CCN(CCC(=O)N3CCCCC3)C2)no1 (stereo not drawn) | > 50.1 µM
* CSCCC(=O)NCc1ccc(C)s1 | > 501 µM

Kindly note the recorded IC50 for "Cc1cccc2[nH]cc(CCN)c12" , which is 229 µM

Kindly note the recorded IC50 for "Cn1ccnc1N1CCN(c2ccc(C#N)cn2)CC1" , which is > 501 µM

Kindly note the recorded IC50 for "O=C(Nc1nncs1)c1ccccn1" , which is 139 µM

Kindly note the recorded IC50 for COc1cc(-c2cccc3c2OC(CN)C3)cc(OC)c1OC (stereo not drawn) , which is 43.9 µM

Kindly note the recorded IC50 for "CCOC(=O)N1CCC(NC(=O)c2ccsc2)CC1" , which is > 501 µM

Kindly note the recorded IC50 for "Cn1c(C2CC2)nc2c1CCN(Cc1nc(-c3ccsc3)no1)C2" , which is > 50.1 µM

Kindly note the recorded IC50 for "N#Cc1nc(NCCSCCCO)ccc1Cl" , which is 418 µM

Kindly note the recorded IC50 for NCC1CCN(CCc2ccccc2)C1 (stereo not drawn) , which is 213 µM

###

Biological target: Polyketide synthase Pks13 (Mycobacterium tuberculosis (strain ATCC 25618 / H37Rv), UniProt I6X8D2)
Assay: Mycobacterium tuberculosis Polyketide synthase 13 Thioesterase (PKS13)
Consider the following molecules and their measured IC50 readings.

• Cc1noc(CNc2ccc(CC(=O)N3CCSCC3)cc2)n1 = > 100 µM
• CC(C)(C)Nc1nc(-c2cccnc2)c(-c2ccnc(NCCO)n2)s1 = > 100 µM
• Cc1ccc2[nH]c(CO[C@H]3CN(c4ccc(C#N)cn4)C[C@H]3F)nc2c1 = 26.6 µM

Kindly note the recorded IC50 for "CC(C)(C)c1cc(NC(=O)CN2CCC(N3CCNC3=O)CC2)on1" , which is > 100 µM

Kindly note the recorded IC50 for "O=C(CCc1cc(Cl)no1)N1CCC(c2cc3ncccc3cn2)CC1" , which is > 100 µM

Kindly note the recorded IC50 for "O=C(c1ccc(-n2ccnc2)cc1)N1CCN(c2cnccn2)CC1" , which is > 100 µM

###

Consider the following molecules and their measured pIC50 readings.
Biological target: Histidine--tRNA ligase (Leishmania infantum)
Sequence (A4I591 whole entry): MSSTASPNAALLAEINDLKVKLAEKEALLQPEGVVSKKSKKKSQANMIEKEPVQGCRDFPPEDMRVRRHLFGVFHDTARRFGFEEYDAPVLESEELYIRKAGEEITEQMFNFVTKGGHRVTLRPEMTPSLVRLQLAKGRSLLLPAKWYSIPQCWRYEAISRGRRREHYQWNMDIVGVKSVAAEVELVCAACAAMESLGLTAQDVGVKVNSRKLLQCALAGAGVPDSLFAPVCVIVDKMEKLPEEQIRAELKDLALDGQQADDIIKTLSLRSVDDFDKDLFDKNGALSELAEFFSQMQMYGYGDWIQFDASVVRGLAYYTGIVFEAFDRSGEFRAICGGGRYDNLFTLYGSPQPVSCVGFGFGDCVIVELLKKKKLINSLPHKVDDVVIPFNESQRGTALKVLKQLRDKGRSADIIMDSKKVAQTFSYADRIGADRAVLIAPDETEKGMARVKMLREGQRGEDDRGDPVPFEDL
Assay: Leishmania infantum Histidine tRNA synthetase (LdHisRS)
pIC50: −log10 of the molar value.

Use the examples below as a reference point.
* Fc1cccc(Oc2ccc(CNCC3CNc4ccnn4C3)cn2)c1 (configuration not stated) | < 4.00
* c1ccc(Cn2cc(CNCC3CCCN3c3cccnn3)cn2)cc1 (configuration not stated) | < 4.00
* Cc1nnc(N2CCc3cnc(C(C)C)nc3C2)c(C#N)c1C | < 4.00
* Cn1cc(Br)cc(NC(=O)CC2CCC2)c1=O | < 4.00
* c1cc(-c2ccc3c(c2)CCC32CCNCC2)ccn1 | < 4.00
* COCCN(C(=O)c1cnccn1)c1nc2c(s1)CCc1c-2cnn1C | < 4.00
* Cc1csc(N2CCN(C(=O)CCC(=O)c3ccc(C)s3)CC2)n1 | < 4.00
* CS(=O)(=O)CCOCCNc1cncc(Br)c1 | < 4.00
* Cc1cc(NC(=O)CN2CCc3nn(C)c(=O)cc3C2)no1 | < 4.00
* CC(C)c1ncc2c(n1)CN(Cc1nc(Cc3ccccc3)no1)CC2 | < 4.00

// pIC50 (Histidine--tRNA ligase (Leishmania infantum)) for COCC(O)CNc1cncc(Br)c1 (configuration not stated) = < 4.00

// pIC50 (Histidine--tRNA ligase (Leishmania infantum)) for c1cc2nccc(CC3CCCN(Cc4ncc[nH]4)CC3)c2cn1 (configuration not stated) = < 4.00

###

System: Schistosoma mansoni
Experiment: High throughput screening of compounds against Schistosoma mansoni motility
Type: functional
Parameters: dose or concentration left out as unconfirmed
Consider the following compounds and their measured Percent Effect readings.
The reply should read as a number followed by its unit.

Use the examples below as a reference point.
* CNc1nc(C(=O)N2CCCC(c3nccn3CC3CCC3)C2)cs1 (stereo not given) | -15.23%
* O=C1CCSCC(C(=O)N2CCN(C3CCCCC3)CC2)N1 (stereo not given) | -48.25%
* CC(C)C(=O)N1CCN(C(=O)c2cscn2)[C@H]2CS(=O)(=O)C[C@H]21 | -16.72%
* COc1ccccc1OCC(=O)NCC(O)(c1ccccc1)C1CC1 (stereo not given) | -13.46%
* CC(C)(C)c1ccn(C2(C(=O)O)CCN(c3nccc(N)n3)CC2)n1 | 14.42%

Kindly note the recorded Percent Effect for "Cc1ccccc1N1CCCN(C(=O)CCCS(N)(=O)=O)CC1" , which is -57.21%

Kindly note the recorded Percent Effect for "O=C(CCc1ccccc1)Nc1ncccc1OC(F)F" , which is -1.295%

Kindly note the recorded Percent Effect for CC(CNC(=O)Nc1ccc(N(C)C)nc1)Cn1cccn1 (stereo not given) , which is -28.69%

Kindly note the recorded Percent Effect for "CCc1nnc2n1CCN(Cc1csc(-c3cnn(C)c3)n1)C2" , which is -30.99%

Kindly note the recorded Percent Effect for "CC(C)(C)NC(=O)CNC(=O)CCc1ccccc1Br" , which is 20.34%

Kindly note the recorded Percent Effect for O=C(NCC1CC1)C1CSCN1S(=O)(=O)c1cccc(F)c1 (stereo not given) , which is -77.75%

Kindly note the recorded Percent Effect for "Cc1ccc(N2CCN(C(=O)COc3nccc(C)n3)CC2)nn1" , which is -46.68%
